# Tested on: HCT-15 colon
# method description: NCI-60 one-dose screen, 48 h
# condition context: 10 µM unless noted
Compounds without any hit were thinned out: in the full panel of roughly 83,000, 20% have a hit. Active and inactive are the calls of the source. The calls were made as follows: active = growth percent below 10; inactive = the rest.
Select the correct class. Options are active, inactive and nothing else.

Request: What call does the record list for CC(C)(C)n1cc(-c2ccnc(NCCCNS(=O)(=O)c3cccc(F)c3)c2)c(-c2cccc(O)c2)n1 ?
Response: active

Request: Fill in: this test's call for Nc1nc(Nc2cc(Cl)cc(Cl)c2)nn1S(=O)(=O)c1ccc2ccccc2c1 is ___
Response: inactive

Request: Given Cc1ccc(S(=O)(=O)Nc2c(Br)cc(Br)cc2C(N)=O)cc1 , state the outcome it received in this test.
Response: inactive

Request: Status in this test for CCNc1nc(S(=O)(=O)CC)nc2ccccc12 ?
Response: inactive

Request: Which result was noted for this compound in the test: Cc1nn(-c2ccc(Cl)cc2)c2ncnc(N/N=C/c3cccc([N+](=O)[O-])c3)c12
Response: inactive
